- SYSTEM NAME: Mannose-6-phosphate isomerase (Homo sapiens) (UniProt P34949)
- Sequence (P34949 whole entry, looked up): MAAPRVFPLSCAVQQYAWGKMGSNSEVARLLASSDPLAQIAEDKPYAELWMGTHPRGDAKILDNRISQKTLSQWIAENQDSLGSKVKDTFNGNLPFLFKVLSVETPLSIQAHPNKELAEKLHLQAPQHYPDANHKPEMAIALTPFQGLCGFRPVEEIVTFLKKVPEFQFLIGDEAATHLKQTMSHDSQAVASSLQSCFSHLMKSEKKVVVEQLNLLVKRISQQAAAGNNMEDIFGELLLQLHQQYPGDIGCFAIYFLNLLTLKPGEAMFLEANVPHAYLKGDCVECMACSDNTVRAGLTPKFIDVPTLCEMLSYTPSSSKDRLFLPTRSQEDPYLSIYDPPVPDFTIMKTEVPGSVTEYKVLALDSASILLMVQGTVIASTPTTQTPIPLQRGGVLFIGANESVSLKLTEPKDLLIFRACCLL
- TEST NAME: inhibitors of human PMI, primary screen, biochemical, fluorescence intensity, coupled assay (AID 1209);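 note: plate controls were DMSO vehicle for no effect and wells lacking substrate for full effect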
- ASSAY CONTEXT: purified PMI enzyme, at 20 µM
Screen size: about 190,000 compounds; about 810 (0.43%) were called active. Cut-off read from the data, not from the text of the source: active = inhibition above about 50%; inactive = the rest. Shown is part of a subset that was picked to be rich in actives.
Permitted responses: true (1) = active, false (0) = inactive

Problem: Look up the recorded call for Cc1cccc(/C(N)=N/OC(=O)C23CC4CC(CC(C4)C2)C3)c1 in this test.
Result: false (0)

Problem: Look up the recorded call for O=C1CCCC/C1=C/Nc1ccc2c(c1)OCO2 in this test.
Result: false (0)

Problem: Look up the recorded call for NS(=O)(=O)c1ccc(NC(=O)COC(=O)/C=C/c2ccc([N+](=O)[O-])cc2)cc1 in this test.
Result: false (0)

Problem: Look up the recorded call for Cc1ccc(CN(c2ccc(C(=O)NCc3cccnc3)cc2)S(C)(=O)=O)cc1 in this test.
Result: false (0)

Problem: Look up the recorded call for O=C1/C(=C/Nc2ccc3c(c2)OCO3)CCc2ccccc21 in this test.
Result: true (1)

Problem: Look up the recorded call for CCOC(=O)Nc1ccc(OCc2nnc3c4ccccc4c(C)nn23)cc1 in this test.
Result: false (0)

Problem: Look up the recorded call for CCN(CC)S(=O)(=O)c1ccc(/C=C/C(=O)OCC(=O)Nc2ccc(C(N)=O)cc2)cc1 in this test.
Result: false (0)

Problem: Look up the recorded call for Cn1c(NC(=O)Cc2cccc3ccccc23)cc(=O)n(C)c1=O in this test.
Result: false (0)

Problem: Look up the recorded call for CCN(CC)S(=O)(=O)c1ccc(/C=C/C(=O)OCC(=O)Nc2ccc(S(N)(=O)=O)cc2)cc1 in this test.
Result: true (1)

Problem: Look up the recorded call for COc1ccc2c(c1)CC/C(=C/c1ccco1)C2=O in this test.
Result: false (0)

----------
Would you mind telling me the reported inhibition of each entry?
- SYSTEM NAME: Mannose-6-phosphate isomerase (Homo sapiens) (UniProt P34949)
- TEST NAME: inhibitors of human PMI, primary screen, biochemical, fluorescence intensity, coupled assay (AID 1209);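 note: plate controls were DMSO vehicle for no effect and wells lacking substrate for full effect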
- ASSAY CONTEXT: purified PMI enzyme, at 20 µM, hits give high values
Hit rate of the full screen: of about 190,000 compounds, about 810 (0.43%) were called active. The entries come from a sample that favours actives as a whole.

The recorded inhibition for entry CCOC(=O)N1CCC(N2Cc3cccc(C(=O)Nc4cccc(F)c4)c3C2=O)CC1 equals -24.4% (inactive)

The recorded inhibition for entry NC(=O)CNc1n[nH]c(=S)[nH]c1=O equals -27.7% (inactive)

The recorded inhibition for entry CC(SCC(=O)Nc1ccc(S(=O)(=O)N2CCCCC2)cc1)C(=O)O (stereo unspecified) equals 3.5% (inactive)

The recorded inhibition for entry CCN(CC)c1ccc(/C=C2\NC(=O)NC2=O)cc1 equals 9.7% (inactive)

The recorded inhibition for entry CC1CCc2c(sc(NC(=O)CCCn3cnc([N+](=O)[O-])n3)c2C(N)=O)C1 (stereo unspecified) equals 1.2% (inactive)

The recorded inhibition for entry Clc1ccc(-c2nn3c(-c4ccccn4)nnc3s2)c(Cl)c1 equals -4.5% (inactive)

The recorded inhibition for entry Cn1c(SCC(=O)NCC2CCCO2)nnc1-c1ccc(S(=O)(=O)N2CCCC2)cc1 (stereo unspecified) equals -1.5% (inactive)

The recorded inhibition for entry CCS(=O)(=O)Nc1ccc2[nH]c(=O)[nH]c2c1 equals 52.1% (active)

The recorded inhibition for entry CN(C)/C=C1\C(=O)N(c2ccc([N+](=O)[O-])cc2)N=C1c1ccccc1 equals 24.5% (inactive)

The recorded inhibition for entry NC(=O)c1c(NC(=O)CCCn2cnc([N+](=O)[O-])n2)sc2c1CCCC2 equals 55.6% (active)

The recorded inhibition for entry O=c1c2ccccc2nc2c3ccccc3c(NCc3cccnc3)nn12 equals 6.3% (inactive)

----------
- SYSTEM NAME: Mannose-6-phosphate isomerase (Homo sapiens) (UniProt P34949)
- TEST NAME: inhibitors of human PMI, primary screen, biochemical, fluorescence intensity, coupled assay (AID 1209);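 note: plate controls were DMSO vehicle for no effect and wells lacking substrate for full effect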
- ASSAY CONTEXT: purified PMI enzyme, at 20 µM
Among all 190,000 compounds or so, about 810 (0.43%) were called active. Cut-off read from the data, not from the text of the source: active = inhibition above about 50%; inactive = the rest. Shown is part of a subset that was picked to be rich in actives.
Permitted responses: TRUE = active, FALSE = inactive

Problem: Look up the recorded call for O=c1cnnc(Nc2cccc(C(F)(F)F)c2)[nH]1 in this test.
Result: FALSE

Problem: Look up the recorded call for COc1ccc(Nc2nc(C)cc(=O)[nH]2)cc1 in this test.
Result: FALSE

Problem: Look up the recorded call for COc1ccc(Nc2nc3ccc(OC)cc3s2)cc1 in this test.
Result: FALSE

Problem: Look up the recorded call for O=c1cc(O)c2sc(Nc3ccc(F)cc3)nc2[nH]1 in this test.
Result: TRUE

Problem: Look up the recorded call for CN1CCc2nc(SCC(=O)Nc3cccc(F)c3)c(C#N)c(-c3cccs3)c2C1 in this test.
Result: FALSE

Problem: Look up the recorded call for Fc1ccc(Nc2nc3ccccc3s2)cc1 in this test.
Result: FALSE

----------
- SYSTEM NAME: Mannose-6-phosphate isomerase (Homo sapiens) (UniProt P34949)
- TEST NAME: inhibitors of human PMI, primary screen, biochemical, fluorescence intensity, coupled assay (AID 1209);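 note: plate controls were DMSO vehicle for no effect and wells lacking substrate for full effect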
- ASSAY CONTEXT: purified PMI enzyme, at 20 µM, hits give high values
Out of some 190,000 compounds screened, about 810 (0.43%) were called active. The full list was thinned out, with actives kept by preference.
Would you mind telling me the reported inhibition of each entry?

The recorded inhibition for entry C/C(=C\C(=O)c1cccnc1)Nc1ccc(C(=O)O)cc1 equals 81% (active)

The recorded inhibition for entry CC(C)(C)C1=CC(=Nc2ccccc2N)C=C(C(C)(C)C)C1=O equals -7.3% (inactive)

The recorded inhibition for entry COc1ccc(-c2[nH]c3ccccc3c2SCCNC(=O)c2ccccc2)cc1 equals 7.4% (inactive)

The recorded inhibition for entry COC(=O)c1ccc(C2C(Oc3ccccc3)C(=O)N2CCc2ccc(OC)c(OC)c2)cc1 (stereo not drawn) equals -2.9% (inactive)

The recorded inhibition for entry CCn1c(NCc2ccccn2)nc2c1c(=O)n(C)c(=O)n2C equals -0.4% (inactive)

The recorded inhibition for entry C/C(=N\Nc1nc(N2CCOCC2)nc(N2CCOCC2)n1)c1cccc([N+](=O)[O-])c1 equals -11.8% (inactive)

The recorded inhibition for entry Cc1ccc(C(=O)NCc2ccccc2)c(F)c1F equals 5.5% (inactive)

The recorded inhibition for entry CCN(CC)c1cc(NCCO)c([N+](=O)[O-])c2nonc12 equals 37.9% (inactive)

The recorded inhibition for entry O=[N+]([O-])c1c(NCCO)cc(N2CCC3(CC2)OCCO3)c2nonc12 equals 60.3% (active)

The recorded inhibition for entry O=C(/C=C/c1ccco1)N1CCN(S(=O)(=O)/C=C/c2ccccc2)CC1 equals -3.5% (inactive)

The recorded inhibition for entry CC(=O)Nc1ccc(N/C(C)=C/C(=O)c2cccnc2)cc1 equals -7.3% (inactive)

The recorded inhibition for entry NNC(=O)c1cc(O)c(O)c(O)c1 equals 51.2% (active)

The recorded inhibition for entry CN(CCO)c1cc(N2CCC3(CC2)OCCO3)c2nonc2c1[N+](=O)[O-] equals 6% (inactive)

The recorded inhibition for entry COc1ccc(C(=O)C[N+]2(C)CCOCC2)cc1 equals 81.3% (active)

The recorded inhibition for entry NNC(=O)c1cccc(O)c1 equals 10% (inactive)

The recorded inhibition for entry COC(=O)c1ccc(C2C(Oc3ccc(OC)cc3)C(=O)N2CCc2ccc(OC)c(OC)c2)cc1 (stereo not drawn) equals 52% (active)

The recorded inhibition for entry COc1ccc(C(=O)OCC[N+]2(C)CCOCC2)cc1 equals -0.9% (inactive)

The recorded inhibition for entry O=C(c1cc(-c2ccco2)on1)N1CCOCC1 equals 20.8% (inactive)

The recorded inhibition for entry COc1ccc(OC)c(NC(=O)c2cc3c(=O)n4ccccc4nc3n2C)c1 equals -10.9% (inactive)

The recorded inhibition for entry CNC(=O)c1ccccc1F equals 6.4% (inactive)

The recorded inhibition for entry O=[N+]([O-])c1c(NCCO)cc(N2CCN(Cc3ccc4c(c3)OCO4)CC2)c2nonc12 equals 55.4% (active)

The recorded inhibition for entry Cc1ccc(C(=O)CC2(O)C(=O)N(C)c3ccccc32)s1 (stereo not drawn) equals 8.1% (inactive)

The recorded inhibition for entry CCNc1ccc(C(=O)OCC(=O)NCCN2C(=O)CSC2=O)cc1[N+](=O)[O-] equals -6.6% (inactive)

The recorded inhibition for entry CC(=O)Nc1ccc(Nc2cc(N3CCOCC3)c3nonc3c2[N+](=O)[O-])cc1 equals -2.7% (inactive)

The recorded inhibition for entry O=[N+]([O-])c1cc(-c2ncccn2)cs1 equals -13.4% (inactive)

The recorded inhibition for entry CC(C)(C)c1ccc(C(=O)CSc2nc3ccccc3c(=O)[nH]2)cc1 equals -6.3% (inactive)

The recorded inhibition for entry Cc1ccc(/C=N/NC(=O)CN2CCN(S(=O)(=O)c3ccc(Br)cc3)CC2)s1 equals 4.9% (inactive)

The recorded inhibition for entry O=C(CCc1ccccc1)OCC(=O)c1cccc([N+](=O)[O-])c1 equals 3.7% (inactive)

The recorded inhibition for entry CC(=O)N1c2ccccc2C2(O)N=C(C)SC12 (stereo not drawn) equals 60.3% (active)

The recorded inhibition for entry COC(=O)c1cc(O)c(O)c(O)c1 equals 34% (inactive)

The recorded inhibition for entry NC(=O)CSC1=Nc2ccccc2C2=NC(c3ccccc3)C(=O)N12 (stereo not drawn) equals -8.5% (inactive)

The recorded inhibition for entry Cc1ccc(NC(=S)Nc2cccc3cnccc23)cc1 equals 80.1% (active)

The recorded inhibition for entry Cc1ccc(NC(=S)Nc2cccc3cnccc23)cc1C equals -0.2% (inactive)

The recorded inhibition for entry CN1CCN(C(=O)c2cc(-c3ccco3)on2)CC1 equals -0.9% (inactive)

The recorded inhibition for entry CC(=O)N1c2ccccc2C(C)(C)C2CCC(C)CC21 (stereo not drawn) equals 0.8% (inactive)

The recorded inhibition for entry Cc1cc(C)cc(NC(=S)Nc2cccc3cnccc23)c1 equals 66.2% (active)

The recorded inhibition for entry O=[N+]([O-])c1cccnc1NCc1cccs1 equals -2.4% (inactive)

The recorded inhibition for entry Cc1ccc(O)c(C(=O)c2cnc3c(c2)CN(C)C(=O)N3)c1 equals 3.7% (inactive)

The recorded inhibition for entry CCOc1ccc(NC(=O)CSc2nnc(-c3ccccn3)n2C)cc1 equals 2.1% (inactive)

The recorded inhibition for entry COC(=O)c1cccc(NS(=O)(=O)c2ccc(NC(C)=O)cc2)c1C equals -4.2% (inactive)

The recorded inhibition for entry CS(=O)(=O)N(CC(=O)NC1CC1)c1cccc(F)c1 equals 6.9% (inactive)

The recorded inhibition for entry COc1ccc(C(=O)OCC[N+]2(C)CCCCC2)cc1 equals 4.5% (inactive)

The recorded inhibition for entry S=C(Nc1cccnc1)Nc1cccc2cnccc12 equals 47.5% (inactive)
